These measurements were taken from patent US20260234242A1.

- studyTarget: T1, his-tagged human CDH6 extracellular region protein (hCDH6 ECD-his) (human, UniProt P55285 19-615)
- T1 construct: also called Human CDH6-his; hCDH6-his; not shown: his tag
- T1 sequence: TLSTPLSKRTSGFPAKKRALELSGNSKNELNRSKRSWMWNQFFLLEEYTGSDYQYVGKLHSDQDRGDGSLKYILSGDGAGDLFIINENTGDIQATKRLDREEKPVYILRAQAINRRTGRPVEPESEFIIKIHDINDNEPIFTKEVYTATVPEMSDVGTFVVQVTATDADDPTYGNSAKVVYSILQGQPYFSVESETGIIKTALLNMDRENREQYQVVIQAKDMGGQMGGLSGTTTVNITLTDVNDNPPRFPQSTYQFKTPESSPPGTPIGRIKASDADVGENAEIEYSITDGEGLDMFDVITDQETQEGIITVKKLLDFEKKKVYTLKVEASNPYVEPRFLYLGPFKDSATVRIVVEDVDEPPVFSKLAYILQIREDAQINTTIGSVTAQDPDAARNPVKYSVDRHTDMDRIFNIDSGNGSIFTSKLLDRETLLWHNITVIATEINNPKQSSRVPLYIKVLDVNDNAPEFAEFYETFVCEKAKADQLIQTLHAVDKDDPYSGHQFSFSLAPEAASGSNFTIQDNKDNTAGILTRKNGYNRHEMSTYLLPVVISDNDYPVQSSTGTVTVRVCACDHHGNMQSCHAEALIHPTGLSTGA
- assayInfo: ELISA, coated antigen; ELISA, hCDH6 ECD-his coated at 1 µg/mL, antibody in solution
endpointName: EC50
Record the result as number plus unit.

Working through the 3 binders below one at a time, give EC50 for each.
1. CHI-CDH6-3 (antibody, human IgG1, kappa, V domains shown, also called CH1-CDH6-3; chimeric antibody of murine CDH6-3) VH: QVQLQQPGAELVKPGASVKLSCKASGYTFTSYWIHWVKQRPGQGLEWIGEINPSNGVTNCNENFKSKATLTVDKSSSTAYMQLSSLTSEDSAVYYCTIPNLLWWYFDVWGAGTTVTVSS VL: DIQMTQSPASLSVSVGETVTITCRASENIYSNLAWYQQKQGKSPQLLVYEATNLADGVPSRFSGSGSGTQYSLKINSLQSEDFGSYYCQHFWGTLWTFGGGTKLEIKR
2. CHI-CDH6-5 (antibody, human IgG1, kappa, V domains shown, also called CH1-CDH6-5; chimeric antibody of murine CDH6-5) VH: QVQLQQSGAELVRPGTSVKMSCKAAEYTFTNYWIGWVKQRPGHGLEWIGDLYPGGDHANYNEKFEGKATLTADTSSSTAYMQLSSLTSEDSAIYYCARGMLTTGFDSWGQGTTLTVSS VL: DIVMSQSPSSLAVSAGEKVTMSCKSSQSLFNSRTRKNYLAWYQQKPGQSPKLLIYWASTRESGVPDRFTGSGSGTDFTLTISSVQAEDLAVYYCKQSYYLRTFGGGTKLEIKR
3. CHI-CDH6-12 (antibody, human IgG1, kappa, V domains shown, also called CH1-CDH6-12; chimeric antibody of murine CDH6-12) VH: EVNLVESGGGLVQPGDSLTLSCSASGFTFTDYYMSWVRQFPGKALEWLALIRNKANSYTTEYSASVKGRFTISRDNSQSILYLQMNALRAEDSATYYCARDSYYSHDGFAYWGQGTLVTVSA VL: DIVLTQSPASLAVSLGQRATISCRASKSVSTSSYTYMHWYQQKPGQPPKLLIKFASYLESGVPARFSGSGSGTDFTLNIHPVEEEDAATYYCQHSREFPFTFGTGTKLEIKR

Response:
0.03 nM
0.043 nM
0.105 nM
